Data provenance is patent US9302999B2.

Tested on: ducksalad (Heteranthera limosa)
Experiment: Test B flooded paddy: ducksalad
Assay type: in vivo
Conditions: Flood; 125 g ai/ha; applied to paddy water at 2-leaf stage; visually evaluated after 13 to 15 days
PROPERTY_LABEL: Plant response rating, Ducksalad (0 to 100 scale, 0 is no effect, 100 is complete control)
Enter the number alone.

Some solved cases for reference:
{"MOLECULE": "Cc1nn(-c2ccc(F)cc2)nc1C(=O)c1ccnc(C(F)(F)F)c1 [Compound 167]", "ASSAYED_TARGET": "ducksalad (Heteranthera limosa)", "READOUT_VALUE": 0}
{"MOLECULE": "CC(C)(C)c1nn(-c2ccc(F)cc2)nc1Cc1ccnc(C(F)(F)F)c1 [Compound 176]", "ASSAYED_TARGET": "ducksalad (Heteranthera limosa)", "READOUT_VALUE": 0}
{"MOLECULE": "CC(C)COc1nn(-c2ccc(C(F)(F)F)cc2)nc1Cc1ccnc(C(F)(F)F)c1 [Compound 193]", "ASSAYED_TARGET": "ducksalad (Heteranthera limosa)", "READOUT_VALUE": 0}
{"MOLECULE": "CCCOc1nn(-c2ccc(C(F)(F)F)cc2)nc1Cc1ccnc(C(F)(F)F)c1 [Compound 191]", "ASSAYED_TARGET": "ducksalad (Heteranthera limosa)", "READOUT_VALUE": 20}
{"MOLECULE": "CCOCc1nn(-c2ccc(F)cc2)nc1Oc1ccnc(C(F)(F)F)c1 [Compound 163]", "ASSAYED_TARGET": "ducksalad (Heteranthera limosa)", "READOUT_VALUE": 70}

Find the recorded Plant response rating, Ducksalad (0 to 100 scale, 0 is no effect, 100 is complete control) belonging to CCCCOc1nn(-c2ccc(C(F)(F)F)cc2)nc1Cc1ccnc(C(F)(F)F)c1 [Compound 194] and report it. 0

And CCOc1nn(-c2ccc(F)cc2F)nc1Cc1ccnc(C(F)(F)F)c1 [Compound 190] ? 70
